Source listed as patent EP0103381B1.

This section presents molecules with their documented zone of inhibition at 100 µg/mL values.
- Test system: Aerobacter aerogenes
- PROCEDURE SUMMARY: agar plate paper-disc inhibition zone screening
- Assay type: cell-based
- STATED CONDITIONS: Klebsiella aerogenes; Dose 0.1 mg/ml; read-out: Inhibition Zone Diameter mm (Dose mg/ml) A. Aerogenes
ASSAY ENDPOINT: zone of inhibition at 100 µg/mL

| SUBSTANCE SMILES | RESULT VALUE |
| --- | --- |
| NCCn1nc2c3c(c(NCCNCCO)ccc31)C(=O)c1ccccc1-2 | 17 mm |
| CNc1ccc2c3c(nn2CCNCCO)-c2ccccc2C(=O)c13 | 15 mm |
| CCN(CC)CCn1nc2c3c(c(NCCN4CCNCC4)ccc31)C(=O)c1ccccc1-2 | 19 mm |
| NCCn1nc2c3c(c(Cl)ccc31)C(=O)c1ccccc1-2 | 25 mm |
| CCN(CC)CCCNc1ccc2c3c(nn2CCN(CC)CC)-c2ccccc2C(=O)c13 | 20 mm |
| CCN(CC)CCCCNc1ccc2c3c(nn2CCN(CC)CC)-c2ccccc2C(=O)c13 | 16 mm |
